assay_target: D(2) dopamine receptor (Homo sapiens)
assay_remarks: Dopamine D2 receptor (DRD2) small molecule antagonists, cell-based qHTS assay (AID 1963595); further: on the % scale 0 is the no-effect control and ±100 the full control effect
stated_conditions: HEK293-DRD2 cAMP HTRF antagonist mode; series mostly up to 92.4 µM
Inconclusive results are not listed. Calls of active or inactive are those of the source. The call rests on the fitted dose curve; in most records, active means well fitted inhibition curve with a large enough effect in the signal ratio in the repeat runs, with a control signal flat; inconclusive means weak or mixed curves, or effect the other way; inactive means flat fitted curve, though single readings scatter; the % refers to the signal ratio.
observed_property: activity change, negative = inhibition

Here's what some known entries look like.
compound: COCC(=O)Nc1c(I)c(C(=O)NCC(O)CO)c(I)c(C(=O)N(C)CC(O)CO)c1I (stereo not drawn)
assay_target: D(2) dopamine receptor (Homo sapiens)
activity change, negative = inhibition: inactive
//
compound: O=C(O)c1ccc2cc(O)ccc2c1
assay_target: D(2) dopamine receptor (Homo sapiens)
activity change, negative = inhibition: inactive
//
compound: Cc1ccccc1N1CCN(CCc2nnc3n2CCCC3)CC1
assay_target: D(2) dopamine receptor (Homo sapiens)
activity change, negative = inhibition: inactive
//
compound: CC[C@H](NC(=O)c1cc(F)ccc1NS(=O)(=O)c1cccc2cccnc12)c1ccccc1
assay_target: D(2) dopamine receptor (Homo sapiens)
activity change, negative = inhibition: inactive
//
compound: CCNC(=O)C1CC(C)CCC1C(C)C (stereo not drawn)
assay_target: D(2) dopamine receptor (Homo sapiens)
activity change, negative = inhibition: inactive
//
compound: CCC1(C)NC(=O)NC1=O (stereo not drawn)
assay_target: D(2) dopamine receptor (Homo sapiens)
activity change, negative = inhibition: inactive
//
compound: FC(F)(F)C(F)(F)C(F)(F)C(F)(F)C(F)(F)C(F)(F)C(F)(F)C(F)(F)C(F)(F)C(F)(F)F
assay_target: D(2) dopamine receptor (Homo sapiens)
activity change, negative = inhibition: 10.1% [at 8.38 µM] (inactive)
//
compound: CCCCCCCCCC[N+](C)(C)[O-]
assay_target: D(2) dopamine receptor (Homo sapiens)
activity change, negative = inhibition: inactive
//
compound: CS(=O)(=O)c1ccc([C@@H](C[C@H]2CCC(=O)C2)C(=O)Nc2cnccn2)cc1Cl
assay_target: D(2) dopamine receptor (Homo sapiens)
activity change, negative = inhibition: inactive
//
compound: N#CCC(=O)NN
assay_target: D(2) dopamine receptor (Homo sapiens)
activity change, negative = inhibition: inactive

Request: I'd like to know its activity change, negative = inhibition. The compound in question is Cc1cc2c(cc1S(N)(=O)=O)S(=O)(=O)CCC2
Response: inactive

Request: Entry Cc1ccc2ccccc2n1 : reported activity change, negative = inhibition = ?
Response: inactive

Request: Need activity change, negative = inhibition, item CCc1nccnc1CC
Response: -10.9% [at 18.9 µM] (inactive)

---

assay_remarks: p53 small molecule agonists, cell-based qHTS assay with human liver microsomes: qHTS cell viability counter screen (AID 1963579); further: potency means the concentration at half of the fitted maximal effect; nearly all actives have a fitted effect of over 45% in size
stated_conditions: p53RE-bla HCT-116 viability, ATP luminescence, 16 h, HLM; series mostly up to 66 µM
Records with an inconclusive call do not appear. The source made the active and inactive calls. Calls follow the shape of the full dose curve.
observed_property: Potency

The examples below pair each entry with its known result.
compound_string: O=C(O)c1cccc(-c2noc(-c3ccccc3F)n2)c1
Potency: 15.8 µM (active)

compound_string: Cc1oc(-c2ccccc2)nc1CCOc1ccc(C[C@H](Nc2ccccc2C(=O)c2ccccc2)C(=O)O)cc1
Potency: 28.9 µM (active)

compound_string: CCCCCCCCCCCCN(CCO)CCO
Potency: 45.6 µM (active)

compound_string: O=C(O)c1cccc(Cl)n1
Potency: 40.8 µM (active)

Please look at the following compound next.
Request: If you can, please state the reported Potency value of ICCc1ccccc1 .
Response: 28.3 µM (active)
